# measurementProtocol: Measurement of logP values by HPLC on reversed phase columns (EEC directive 79/831 Annex V.A8)
# Assay type: physicochemical
# recordedConditions: HPLC, pH 2.7, 0.1% formic acid in water / acetonitrile; single value
Everything with Log P lower than 4 is label 0; everything else, including exactly 4, is label 1.

Does Cc1snnc1C(=NOCc1cccc(NC(=O)COCC2CCC2)n1)c1ccccc1 [Example 54] have a reported Log P of at least 4?
label 1

Does Log P meet or surpass 4 for Cc1snnc1C(=NOCc1csc(NC(=O)CSCCC(C)C)n1)c1ccccc1 [Example 67] ?
label 1

For this compound, is measured Log P 4 or higher? Cc1snnc1C(=NOCc1csc(NC(=O)C(C)OCC2CC2)n1)c1ccccc1 (stereo not drawn) [Example 39]
label 0

Is reported Log P greater than or equal to 4 here: Cc1snnc1C(=NOCc1csc(NC(=O)C(C)OCC2CCC2)n1)c1ccccc1 (stereo not drawn) [Example 110]
label 1

// inclusive: Log P at least 4? input: Cc1snnc1C(=NOCc1cccc(NC(=O)C(C)OCCC(C)C)n1)c1ccccc1 (stereo not drawn) [Example 50]
label 1

Hello, I need to know if Cc1snnc1C(=NOCc1csc(NC(=O)C(C)OCC2CCCC2)n1)c1ccccc1 (stereo not drawn) [Example 75] has measured Log P not below 4. Thanks!
label 1

Hi, just wondering whether Cc1snnc1C(=NOCc1cccc(NC(=O)COc2ccc(Cl)cc2)n1)c1ccccc1 [Example 36] shows Log P of 4 or higher.
label 1

Tell me whether Log P is at least 4 here: Cc1snnc1C(=NOCc1cccc(NC(=O)C(C)OCC2CCCC2)n1)c1ccccc1 (stereo not drawn) [Example 76]
label 1

Is it the case that Cc1snnc1C(=NOCc1cccc(NC(=O)COCCC2CCCCC2)n1)c1ccccc1 [Example 84] has Log P reaching or exceeding 4?
label 1

Given Cc1snnc1C(=NOCc1cccc(NC(=O)CSC2CCCCC2)n1)c1ccccc1 [Example 88] , state whether its Log P is at least 4.
label 1

Is it the case that C=CCSCC(=O)Nc1nc(CON=C(c2ccccc2)c2nnsc2C)cs1 [Example 91] has Log P reaching or exceeding 4?
label 0

Textbook exercise: given the entry C#CCOCC(=O)Nc1nc(CON=C(c2ccccc2)c2nnsc2C)cs1 [Example 47] , state whether its Log P is greater than or equal to 4.
label 0

Test whether the compound Cc1snnc1C(=NOCc1cccc(NC(=O)COCC2CCCC2)n1)c1ccccc1 [Example 109] records Log P of 4 or higher.
label 1

Dear colleague, could you confirm whether Cc1snnc1C(=NOCc1csc(NC(=O)CSC2CCCC2)n1)c1ccccc1 [Example 106] has Log P at or above 4?
label 1

Would you say Cc1snnc1C(=NOCc1csc(NC(=O)COCC2CC2)n1)c1ccccc1 [Example 17] shows Log P at minimum 4?
label 0

Can Cc1snnc1C(=NOCc1csc(NC(=O)C(C)(C)Oc2ccccc2)n1)c1ccccc1 [Example 102] be said to have Log P at or above 4?
label 1

---

Please provide measured Log P for the entries that follow.
# measurementProtocol: Measurement of logP values by HPLC on reversed phase columns (EEC directive 79/831 Annex V.A8)
# Assay type: physicochemical
# recordedConditions: HPLC, pH 2.7, 0.1% formic acid in water / acetonitrile; single value
I'd appreciate a reply containing only the number, no unit.

Name the reported Log P value associated with the molecule Cc1snnc1C(=NOCc1csc(NC(=O)COc2ccc(Cl)cc2)n1)c1ccccc1 [Example 34]
4.19

Quick one: Log P of Cc1snnc1C(=NOCc1csc(NC(=O)COc2ccccc2)n1)c1ccccc1 [Example 8] ?
3.8

Quick check: Log P of CCCCOCC(=O)Nc1cccc(CON=C(c2ccccc2)c2nnsc2C)n1 [Example 22] ?
4.41

What value of Log P has been reported for the following molecule? Cc1snnc1C(=NOCc1csc(NC(=O)COc2ccc(I)cc2)n1)c1ccccc1 [Example 45]
4.44

Param item = C#CCOC(C)C(=O)Nc1cccc(CON=C(c2ccccc2)c2nnsc2C)n1 (stereo not drawn) [Example 14] ; retrieve measured Log P.
3.58

Fill in the blank: the reported Log P of Cc1snnc1C(=NOCc1cccc(NC(=O)C(F)(F)Oc2ccccc2)n1)c1ccccc1 [Example 2] is ____.
4.54

Given C=CCCOCC(=O)Nc1nc(CON=C(c2ccccc2)c2nnsc2C)cs1 [Example 37] , state its recorded Log P.
3.68

Given the molecule Cc1snnc1C(=NOCc1cccc(NC(=O)COC(C)C)n1)c1ccccc1 [Example 66] , what is its reported Log P?
3.94

// query Log P value for entry Cc1snnc1C(=NOCc1cccc(NC(=O)COc2ccccc2)n1)c1ccccc1 [Example 10]
4.11

---

# measurementProtocol: Measurement of logP values by HPLC on reversed phase columns (EEC directive 79/831 Annex V.A8)
# Format: physicochemical
# recordedConditions: HPLC, pH 2.7, 0.1% formic acid; minor isomer
Please provide measured Log P [I2] minor isomer for the entries that follow.

Given the molecule COc1ccccc1OCC(=O)Nc1nc(CON=C(c2ccccc2)c2nnsc2C)cs1 (mixture of isomers) , what is its reported Log P [I2] minor isomer?
3.78

Entry COc1ccccc1OCC(=O)Nc1cccc(CON=C(c2ccccc2)c2nnsc2C)n1 (mixture of isomers) has what Log P [I2] minor isomer?
4.11

Name the recorded Log P [I2] minor isomer for CC(=O)OC(C)(C)C(=O)Nc1nc(CON=C(c2ccccc2)c2nnsc2C)cs1 (mixture of isomers) .
3.25

Quick one: Log P [I2] minor isomer of Cc1snnc1C(=NOCc1csc(NC(=O)COc2ccccc2Cl)n1)c1ccccc1 (mixture of isomers) ?
4.06

Entry CC(=O)OCC(=O)Nc1nc(CON=C(c2ccccc2)c2nnsc2C)cs1 (mixture of isomers) has what Log P [I2] minor isomer?
2.68

State the recorded Log P [I2] minor isomer for this entry: Cc1snnc1C(=NOCc1cccc(NC(=O)COc2cccc(Cl)c2)n1)c1ccccc1 (mixture of isomers)
4.41

Find the recorded Log P [I2] minor isomer belonging to Cc1snnc1C(=NOCc1csc(NC(=O)CSc2ccccc2)n1)c1ccccc1 (mixture of isomers) and report it.
3.78

Fill in: Log P [I2] minor isomer of Cc1snnc1C(=NOCc1csc(NC(=O)C(F)(F)Oc2ccccc2)n1)c1ccccc1 (mixture of isomers) is ___
4.15

Need Log P [I2] minor isomer, item CC(=O)OCC(=O)Nc1cccc(CON=C(c2ccccc2)c2nnsc2C)n1 (mixture of isomers)
2.82

Look up Log P [I2] minor isomer: CC(=O)OC(C)(C)C(=O)Nc1cccc(CON=C(c2ccccc2)c2nnsc2C)n1 (mixture of isomers)
3.35

Look at this molecule and give its reported Log P [I2] minor isomer. Cc1snnc1C(=NOCc1csc(NC(=O)COCc2ccccc2)n1)c1ccccc1 (mixture of isomers)
3.85

Give its Log P [I2] minor isomer value. Item: Cc1snnc1C(=NOCc1cccc(NC(=O)COc2ccccc2)n1)c1ccccc1 (mixture of isomers)
4.01

Could you tell me which Log P [I2] minor isomer is on file for Cc1snnc1C(=NOCc1cccc(NC(=O)COc2ccccc2Cl)n1)c1ccccc1 (mixture of isomers) ?
4.49

Would you mind telling me what Log P [I2] minor isomer value was observed for Cc1snnc1C(=NOCc1cccc(NC(=O)CSc2ccccc2)n1)c1ccccc1 (mixture of isomers) ?
4.09

---

Provide the recorded Log P for the entries that follow.
# measurementProtocol: Measurement of logP values by HPLC on reversed phase columns (EEC directive 79/831 Annex V.A8)
# Type: physicochemical
# recordedConditions: HPLC, pH 2.7, 0.1% formic acid in water / acetonitrile; single value

Quick check: Log P of Cc1snnc1C(=NOCc1cccc(NC(=O)C(C)OCc2ccccc2)n1)c1ccccc1 (stereo not shown) [Example 94] ?
4.58

Name the reported Log P value associated with the compound C#CCOC(C)C(=O)Nc1nc(CON=C(c2ccccc2)c2nnsc2C)cs1 (stereo not shown) [Example 13]
3.29

# Log P lookup, item Cc1snnc1C(=NOCc1cccc(NC(=O)CSC2CCCC2)n1)c1ccccc1 [Example 107]
4.51

Consider the compound Cc1snnc1C(=NOCc1csc(NC(=O)COCC2CCCCO2)n1)c1ccccc1 (stereo not shown) [Example 71] and give its measured Log P.
3.76

Give the measured Log P of Cc1snnc1C(=NOCc1cccc(NC(=O)C(C)SCc2ccccc2)n1)c1ccccc1 (stereo not shown) [Example 99] .
4.58

Sample Cc1snnc1C(=NOCc1csc(NC(=O)C(C)OCCC(C)C)n1)c1ccccc1 (stereo not shown) [Example 49] — what was its Log P?
4.68

What does the record list as Log P for Cc1snnc1C(=NOCc1cccc(NC(=O)COCC(C)C)n1)c1ccccc1 [Example 64] ?
4.44

Quick one: Log P of Cc1snnc1C(=NOCc1cccc(NC(=O)C(C)(C)Oc2ccccc2)n1)c1ccccc1 [Example 103] ?
4.93

Item Cc1snnc1C(=NOCc1csc(NC(=O)CSCCc2ccccc2)n1)c1ccccc1 [Example 51] has what recorded Log P?
4.24

# Log P lookup, item Cc1snnc1C(=NOCc1cccc(NC(=O)C(C)OCC(C)C)n1)c1ccccc1 (stereo not shown) [Example 86]
4.83

State the recorded Log P for this entry: CC(=NOCC(=O)Nc1cccc(CON=C(c2ccccc2)c2nnsc2C)n1)c1ccccc1 [Example 112]
4.51

Given C#CCOC(CC)C(=O)Nc1cccc(CON=C(c2ccccc2)c2nnsc2C)n1 (stereo not shown) [Example 105] , state its recorded Log P.
3.9

For Cc1snnc1C(=NOCc1csc(NC(=O)C(C)SCc2ccccc2)n1)c1ccccc1 (stereo not shown) [Example 98] , what is its reported Log P?
4.26

// Log P lookup, key: Cc1snnc1C(=NOCc1cccc(NC(=O)COCC2CCCCC2)n1)c1ccccc1 [Example 70]
5.45

What does the record list as Log P for Cc1snnc1C(=NOCc1csc(NC(=O)COCCC2CCCC2)n1)c1ccccc1 [Example 77] ?
4.91

Sample Cc1snnc1C(=NOCc1cccc(NC(=O)CSCCc2ccccc2)n1)c1ccccc1 [Example 52] — what was its Log P?
4.53

// query Log P value for entry Cc1snnc1C(=NOCc1cccc(NC(=O)COC2CCCCC2)n1)c1ccccc1 [Example 60]
4.91

Fill in: Log P of Cc1snnc1C(=NOCc1cccc(NC(=O)C(C)Oc2ccccc2)n1)c1ccccc1 (stereo not shown) [Example 16] is ___
4.41

State the recorded Log P for this entry: Cc1snnc1C(=NOCc1csc(NC(=O)COC(C)C)n1)c1ccccc1 [Example 65]
3.59

Item C=CCCOCC(=O)Nc1cccc(CON=C(c2ccccc2)c2nnsc2C)n1 [Example 38] has what recorded Log P?
3.99

What does the record list as Log P for Cc1snnc1C(=NOCc1csc(NC(=O)COCCC2CCCCC2)n1)c1ccccc1 [Example 83] ?
5.28

Suppose we examine the compound Cc1snnc1C(=NOCc1cccc(NC(=O)COC2CCCC2)n1)c1ccccc1 [Example 24] ; what Log P value has been reported?
4.51

# lookup: Log P of Cc1snnc1C(=NOCc1cccc(NC(=O)C(C)OCC2CCC2)n1)c1ccccc1 (stereo not shown) [Example 111]
4.93

Item under review: Cc1snnc1C(=NOCc1csc(NC(=O)COCC2CCCCC2)n1)c1ccccc1 [Example 69] . Reported Log P?
4.93

Can you share its Log P? I mean this compound: Cc1snnc1C(=NOCc1cccc(NC(=O)COCC2CC2)n1)c1ccccc1 [Example 18]
3.92

Given C=CCCOC(C)C(=O)Nc1cccc(CON=C(c2ccccc2)c2nnsc2C)n1 (stereo not shown) [Example 20] , state its recorded Log P.
4.36

What value of Log P has been recorded for this entry: Cc1snnc1C(=NOCc1csc(NC(=O)C(C)OCC2CCCCC2)n1)c1ccccc1 (stereo not shown) [Example 73]
5.35

Which Log P is reported for this compound? Cc1snnc1C(=NOCc1csc(NC(=O)COCc2ccccc2)n1)c1ccccc1 [Example 27]
3.92
